Biological target: recombinant human DHODH protein (Homo sapiens)
Sequence (Q02127 whole entry): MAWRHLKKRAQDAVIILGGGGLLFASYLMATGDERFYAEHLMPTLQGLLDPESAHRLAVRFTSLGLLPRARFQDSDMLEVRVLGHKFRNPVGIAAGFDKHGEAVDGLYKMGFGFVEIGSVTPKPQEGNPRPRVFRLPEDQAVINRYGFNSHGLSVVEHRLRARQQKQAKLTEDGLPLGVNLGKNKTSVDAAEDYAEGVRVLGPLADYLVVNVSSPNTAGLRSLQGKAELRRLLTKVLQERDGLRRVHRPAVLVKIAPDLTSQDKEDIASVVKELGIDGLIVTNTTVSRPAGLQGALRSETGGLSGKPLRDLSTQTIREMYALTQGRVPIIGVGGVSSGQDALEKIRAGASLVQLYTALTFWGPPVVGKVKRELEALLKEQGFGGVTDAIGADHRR
Assay: In vitro DHODH enzyme inhibition assay
Type: biochemical
Conditions: in words
quantity: DHODH enzyme inhibition

molecule	value
O=C(O)c1cccnc1Nc1ccc(Cl)cc1	inhibitors of DHODH
C/C(O)=C(\C#N)C(=O)Nc1ccc(C(F)(F)F)cc1 [teriflunomide]	active
O=C(CCNC(=O)c1ccc(Cl)cc1)N[C@@H]1CCCc2ccccc21 [(R)-C07]	inhibitors of DHODH
Cc1c(-c2ccc(-c3ccccc3F)cc2)nc2ccc(F)cc2c1C(=O)O [brequinar sodium]	active
